FYI, the data here is from the supplement of paper PMC4862054.

Could you please report measured normalised viability for the items listed next?
test system: CAL-85-1; assay: normalised viability (% of control), CellTiter-Blue; higher = more viable cells (about 100 = DMSO control); settings: 30 nM; incubation time: 72 h
A bare number is not enough; add the unit after it.

What value of normalised viability has been recorded for this entry: CNNCc1ccc(C(=O)NC(C)C)cc1 [Procarbazine]
87.4%

Proceed to O=C(O)CCCc1ccc(N(CCCl)CCCl)cc1 [Chlorambucil]
92.7%

Field entry: CCCCCCCCc1ccc(CCC(N)(CO)CO)cc1 [Fingolimod]
87.1%

Value sought for every listed compound: normalised viability.
1. CN1CCN(CCOc2cc(OC3CCOCC3)c3c(Nc4c(Cl)ccc5c4OCO5)ncnc3c2)CC1 [Saracatinib]
2. CC(C)(C#N)c1cc(Cn2cncn2)cc(C(C)(C)C#N)c1 [Anastrozole]

["82.6%", "86.5%"]

----------
Would you kindly list normalised response for each of these compounds?
system: Hs578T; test: normalised response (% of control), CellTiter-Glo; higher = more viable cells (100 = DMSO, 0 = benzethonium chloride kill control); conditions: incubation time: 72 h
Numbers only, in %.

Notebook: pull reported normalised response for Hs578T, entry C[C@]12CC[C@H](O)CC1=CC[C@@H]1[C@@H]2CC[C@]2(C)C(c3cccnc3)=CC[C@@H]12 [Abiraterone] (5000 nM)
102

Now try Nc1nc(OCc2cc(Br)cs2)c2[nH]cnc2n1 [Lomeguatrib] (10000 nM) .
98.7

Now for another entry.
Give Hs578T normalised response for CO[C@H]1C[C@@H]2CC[C@@H](C)[C@@](O)(O2)C(=O)C(=O)N2CCCC[C@H]2C(=O)O[C@H]([C@H](C)C[C@@H]2CC[C@@H](OCCO)[C@H](OC)C2)CC(=O)[C@H](C)/C=C(\C)[C@@H](O)[C@@H](OC)C(=O)[C@H](C)C[C@H](C)/C=C/C=C/C=C/1C [Everolimus] (100 nM)
65.1

----------
system: CAL-148; assay: drug sensitivity score (DSS), CellTiter-Blue viability (DSS (AUC-based score)); higher = stronger viability inhibition; extreme values may be limits of the assay; settings: incubation time: 72 h
I'd appreciate it if you could supply drug sensitivity score values for the items below.
Answers are plain numbers.

The cases that follow already have their drug sensitivity score on record.
What does the data say about its drug sensitivity score? Entry: Cc1ccc(NC(=O)c2ccc(CN3CCN(C)CC3)cc2)cc1Nc1nccc(-c2cccnc2)n1
0

Now consider CN1CCN(CCOc2cc(OC3CCOCC3)c3c(Nc4c(Cl)ccc5c4OCO5)ncnc3c2)CC1 and answer again.
1.9

Same thing, different molecule: CCCCCCCCc1ccc(CCC(N)(CO)CO)cc1
0

Now this one: C/C(=C\c1csc(C)n1)[C@@H]1C[C@@H]2O[C@]2(C)CCC[C@H](C)[C@H](O)[C@@H](C)C(=O)C(C)(C)[C@@H](O)CC(=O)O1
24.8

Field: next molecule
Consider the molecule CN(C)C[C@@H]1CCn2cc(c3ccccc32)C2=C(C(=O)NC2=O)c2cn(c3ccccc23)CCO1 and give its measured drug sensitivity score.
3.06

----------
Give normalised response for every item shown.
system: DU-4475; experiment: normalised response (% of control), CellTox Green; higher = less cell death (100 = DMSO, 0 = benzethonium chloride kill control); details: incubation time: 72 h
Answers are plain numbers, in %.

Below: 4 compounds and their reported normalised response.
Given the compound Cn1cncc1[C@@](N)(c1ccc(Cl)cc1)c1ccc2c(c1)c(-c1cccc(Cl)c1)cc(=O)n2C [Tipifarnib] (100 nM) , what is its reported normalised response?
98.1

Please give the result for CN(C)CCN1C(=O)c2cccc3cc(N)cc(c23)C1=O [Amonafide] (100 nM) too.
97.2

Ok, now Cc1ccc(NC(=O)c2ccc(CN3CCN(C)CC3)cc2)cc1Nc1nccc(-c2cccnc2)n1 [Imatinib] (100 nM)
102

And Cn1c(=O)n(-c2ccc(C(C)(C)C#N)cc2)c2c3cc(-c4cnc5ccccc5c4)ccc3ncc21 [Dactolisib] (100 nM) ?
94.5

Batch of 2 compounds: report normalised response for each.
1. O=C(O)CCCc1ccc(N(CCCl)CCCl)cc1 [Chlorambucil] (100 nM)
2. CNNCc1ccc(C(=O)NC(C)C)cc1 [Procarbazine] (100 nM)

102
107
